# Tested on: PF3D7_0420300 AP2 domain 1 (GST-tagged)
# TEST_NAME: gcPBM binding intensity (ln(normalized median fluorescence intensity)); higher = stronger DNA binding
In all, about 25,000 sequences were measured (“ln(normalized median fluorescence intensity)”: median about 9.3, highest 2% from about 10 on). The full list was thinned out, with the highest values kept by preference.
MEASUREMENT_NAME: gcPBM binding intensity (ln)
Answer with a number only.

# input Which gcPBM binding intensity (ln) value is on record for TACACAAAAATAAACACACACACATATAAATAAATA [CACACA_site6599] ?
# output 10.2

# input Which gcPBM binding intensity (ln) value is on record for AGATAAAATAAATACACACACATAAATACGTACAAA [CACACA_site4739] ?
# output 10.2

# input Which gcPBM binding intensity (ln) value is on record for AGATAAAATATATACACACACATAAATACGTACAAA [CACACA_site1086] ?
# output 10.1

# input Which gcPBM binding intensity (ln) value is on record for AATATATAAATATATACACACAAAAACATATATATA [CACACA_site1318] ?
# output 9.8

# input Which gcPBM binding intensity (ln) value is on record for GTAATTTTATATGGTTGTACATATATATATATATAT [XGTACX_site6659] ?
# output 9.32

# input Which gcPBM binding intensity (ln) value is on record for TATATATATATGTGTAGTACAACAAATATGAAAAAT [XGTACX_site4059] ?
# output 9.54

# input Which gcPBM binding intensity (ln) value is on record for TAATAAAAAATATATACACACAAATAAATAAATAAA [CACACA_site4037] ?
# output 9.83

# input Which gcPBM binding intensity (ln) value is on record for ATATATATATATTACACACACACAAAAAAAATAAAG [CACACA_site118] ?
# output 10.4

# input Which gcPBM binding intensity (ln) value is on record for TATAAAAAATAATACACACACATGGCGACAAAATAA [CACACA_site2420] ?
# output 10.2
